Target: human plasma kallikrein (Homo sapiens, UniProt P03952)
Construct: purchased Enzyme Research Laboratories HPKa 1303
Sequence (P03952 20-390 limits assumed): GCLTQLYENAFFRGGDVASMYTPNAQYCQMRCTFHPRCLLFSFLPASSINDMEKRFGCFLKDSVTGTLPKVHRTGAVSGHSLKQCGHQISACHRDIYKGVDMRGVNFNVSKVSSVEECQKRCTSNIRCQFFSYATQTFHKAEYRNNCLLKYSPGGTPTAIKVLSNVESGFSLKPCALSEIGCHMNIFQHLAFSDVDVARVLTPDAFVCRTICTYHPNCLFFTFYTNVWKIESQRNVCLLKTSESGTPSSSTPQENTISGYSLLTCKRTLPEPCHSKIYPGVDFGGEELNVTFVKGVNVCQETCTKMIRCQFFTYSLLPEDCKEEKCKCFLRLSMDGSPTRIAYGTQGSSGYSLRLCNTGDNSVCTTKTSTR
Sequence (P03952 391-638 limits assumed): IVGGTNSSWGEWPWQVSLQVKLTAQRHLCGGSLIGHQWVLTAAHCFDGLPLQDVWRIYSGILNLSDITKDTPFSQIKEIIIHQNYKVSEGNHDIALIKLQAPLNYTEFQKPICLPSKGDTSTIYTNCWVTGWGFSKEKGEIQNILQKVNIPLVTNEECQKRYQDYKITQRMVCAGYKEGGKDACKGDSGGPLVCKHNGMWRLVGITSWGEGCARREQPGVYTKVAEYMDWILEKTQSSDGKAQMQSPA
Test: Enzyme inhibition assay (fluorogenic substrate H-Pro-Phe-Arg-AMC)
Type: biochemical
Conditions: Kallikrein inhibitory activity; 1 nM activated human kallikrein, 500 μM H-Pro-Phe-Arg-AMC, 1 hour room temperature; read-out: Avg. IC50
Peptide text beside a SMILES is read from it.
assayReadout: IC50

compound	assayedSystem	IC50
CC[C@H](C)[C@@H]1NC(=O)[C@H](CO)NC(=O)CSCc2cccc(c2)CSC[C@@H](C(=O)N[C@@H](CCCNC(=N)N)C(=O)N[C@H](C(N)=O)C(C)C)NC1=O [Compound R2154, [mXylyl(1,4)](2-SAc)-SICRV-NH2]	human plasma kallikrein (Homo sapiens, UniProt P03952)	> 7.93 µM
CC[C@@H](C)[C@@H]1NC(=O)[C@@H]2CCCN2C(=O)CCCCCCC/C=C/C[C@@H](C(=O)N[C@@H](CCCNC(=N)N)C(=O)N[C@H](C(N)=O)C(C)C)NC1=O [Compound R2244]	human plasma kallikrein (Homo sapiens, UniProt P03952)	> 50 µM

Task item: # input compound: CC[C@H](C)[C@H](NC(=O)[C@H](CO)NC(=O)[C@H](CCC(=O)O)NC(=O)[C@H](CS)NC(=O)[C@@H](N)CCSC)C(=O)N[C@@H](CS)C(=O)N[C@@H](CCCNC(=N)N)C(=O)N[C@H](C(N)=O)C(C)C [Compound R2007, MCESICRV-NH2] (H-MCESICRV-NH2; N-terminus assumed) ; wanted: its IC50
Reply: 2 µM

* * *

Biological target: human plasma kallikrein (Homo sapiens, UniProt P03952)
Construct: purchased Enzyme Research Laboratories HPKa 1303
Test: Enzyme inhibition assay (fluorogenic substrate H-Pro-Phe-Arg-AMC)
Format: biochemical
Conditions: Kallikrein inhibitory activity; 1 nM activated human kallikrein, 500 μM H-Pro-Phe-Arg-AMC, 1 hour room temperature; read-out: Avg. IC50
Numbered stars: 1 amine (or outer) side, 2 acyl side, 3 side chain; on linkers, the order of the positions; unused ones are H or OH. Bridge positions count the residues as written; N and C are the ends. Square brackets hold non-standard residues; d marks the D form. Peptide text beside a SMILES is read from it. mXylylene = c1cc(C[*:1])cc(C[*:2])c1; dPhg = N[C@@H](C(=O)O)c1ccccc1; Chg = N[C@H](C(=O)O)C1CCCCC1; Tle = CC(C)(C)[C@H](N)C(=O)O; Mpa = O=C(O)CCS
assayReadout: IC50

molecule	IC50
CC(C)(C)[C@H](NC(=O)[C@H](CCCNC(=N)N)NC(=O)[C@@H]1CSCc2cccc(c2)CSCCC(=O)N2CCC[C@H]2C(=O)N[C@H](c2ccccc2)C(=O)N1)C(N)=O [Compound R2187] ([Mpa]P[dPhg]CR[Tle]-NH2; linker 1-4 via mXylylene)	> 4.7 µM

Task item: Form field - read-out: IC50; system: human plasma kallikrein (Homo sapiens, UniProt P03952); submitted item: CC(=O)N[C@H](C(=O)N[C@H]1CSCc2cccc(c2)CSC[C@@H](C(N)=O)NC(=O)[C@@H]2CCCN2C(=O)[C@H](C(C)C)NC(=O)[C@H](CCCNC(=N)N)NC1=O)C1CCCCC1 [Compound R2160, [mXylyl(2,6)]Ac-Chg-CR-V-PC-NH2] (Ac-[Chg]CRVPC-NH2; linker 2-6 via mXylylene)
Reply: > 100 µM

* * *

Biological target: Factor VIIa (Homo sapiens)
Sequence (P08709 61-212 limits assumed): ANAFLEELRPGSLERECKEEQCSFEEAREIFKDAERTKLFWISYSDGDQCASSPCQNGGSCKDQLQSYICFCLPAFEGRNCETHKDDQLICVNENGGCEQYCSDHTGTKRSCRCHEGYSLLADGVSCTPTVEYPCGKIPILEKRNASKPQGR
Sequence (P08709 213-466 limits assumed): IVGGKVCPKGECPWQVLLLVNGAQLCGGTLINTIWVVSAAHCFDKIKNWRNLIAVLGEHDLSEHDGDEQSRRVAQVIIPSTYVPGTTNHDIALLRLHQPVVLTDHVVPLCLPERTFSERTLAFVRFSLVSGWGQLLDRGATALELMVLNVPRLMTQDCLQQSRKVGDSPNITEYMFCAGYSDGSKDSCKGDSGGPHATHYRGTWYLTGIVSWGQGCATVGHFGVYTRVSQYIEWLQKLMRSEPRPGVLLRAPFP
Numbered stars: 1 amine (or outer) side, 2 acyl side, 3 side chain; on linkers, the order of the positions; unused ones are H or OH. Bridge positions count the residues as written; N and C are the ends. Square brackets hold non-standard residues; d marks the D form. Peptide text beside a SMILES is read from it. mXylylene = c1cc(C[*:1])cc(C[*:2])c1
assayReadout: IC50

Task item: Form field - read-out: IC50; system: Factor VIIa (Homo sapiens); submitted item: CC[C@H](C)[C@@H]1NC(=O)[C@H](CO)NC(=O)[C@@H](C)NC(=O)[C@@H](NC(C)=O)CSCc2cccc(c2)CSC[C@@H](C(=O)N[C@@H](CCCNC(=N)N)C(=O)N[C@H](C(N)=O)C(C)C)NC1=O [Compound R2047, [mXylyl(1,5)]Ac-C-a-SICRV-NH2] (Ac-C[dA]SICRV-NH2; linker 1-5 via mXylylene)
Reply: > 100 µM

* * *

Target: Factor Xa (Homo sapiens, UniProt P00742)
Sequence (P00742 41-179 limits assumed): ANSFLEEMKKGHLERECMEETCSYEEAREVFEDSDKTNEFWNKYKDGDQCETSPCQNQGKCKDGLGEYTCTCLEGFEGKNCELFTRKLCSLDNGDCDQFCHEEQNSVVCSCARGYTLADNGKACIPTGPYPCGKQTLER
Sequence (P00742 235-488 limits assumed): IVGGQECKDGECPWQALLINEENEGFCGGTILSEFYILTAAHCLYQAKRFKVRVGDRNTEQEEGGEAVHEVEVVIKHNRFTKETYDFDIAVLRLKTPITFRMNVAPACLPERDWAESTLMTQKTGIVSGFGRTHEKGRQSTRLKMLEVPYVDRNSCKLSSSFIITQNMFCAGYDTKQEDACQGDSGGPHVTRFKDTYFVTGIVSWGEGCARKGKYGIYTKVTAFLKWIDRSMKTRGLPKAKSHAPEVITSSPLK
Numbered stars: 1 amine (or outer) side, 2 acyl side, 3 side chain; on linkers, the order of the positions; unused ones are H or OH. Bridge positions count the residues as written; N and C are the ends. Square brackets hold non-standard residues; d marks the D form. Peptide text beside a SMILES is read from it. * marks the point of attachment. mXylylene = c1cc(C[*:1])cc(C[*:2])c1; Tle = CC(C)(C)[C@H](N)C(=O)O; Heptanoyl = CCCCCCC(=O)*
Reported IC50 by item:

Observe how each entry below is paired with its result.
compound	IC50
CC[C@H](C)[C@@H]1NC(=O)[C@H](CO)NC(=O)[C@H](CCC(=O)O)NC(=O)[C@@H](NC(=O)[C@@H](N)CCSC)CSCc2cccc(c2)CSC[C@@H](C(=O)N[C@@H](CCCNC(=N)N)C(=O)N[C@H](C(N)=O)C(C)C)NC1=O [Compound R2006, [mXylyl(2,6)]MCESICRV-NH2] (H-MCESICRV-NH2; linker 2-6 via mXylylene)	> 7 µM
CC[C@H](C)[C@@H]1NC(=O)[C@H](CO)NC(=O)[C@H](CCC(=O)O)NC(=O)[C@@H](NC(C)=O)CSCc2cccc(c2)CSC[C@@H](C(=O)N[C@@H](CCCNC(=N)N)C(=O)N[C@H](C(N)=O)C(C)C)NC1=O [Compound R2023, [mXylyl(1,5)]Ac-CESICRV-NH2] (Ac-CESICRV-NH2; linker 1-5 via mXylylene)	> 7 µM
CC[C@H](C)[C@@H]1NC(=O)[C@H](CO)NC(=O)[C@@H](C)NC(=O)[C@@H](NC(C)=O)CSCc2cccc(c2)CSC[C@@H](C(=O)N[C@@H](CCCNC(=N)N)C(=O)N[C@H](C(N)=O)C(C)C)NC1=O [Compound R2047, [mXylyl(1,5)]Ac-C-a-SICRV-NH2] (Ac-C[dA]SICRV-NH2; linker 1-5 via mXylylene)	> 100 µM

Task item: # input compound: CSCC[C@H](N)C(=O)N[C@@H](CS)C(=O)N[C@@H](CC(N)=O)C(=O)N[C@@H](Cc1ccc(O)cc1)C(=O)N[C@@H](Cc1c[nH]c2ccccc12)C(=O)N[C@@H](CO)C(=O)N1CCC[C@H]1C(=O)N[C@@H](Cc1c[nH]c2ccccc12)C(=O)N[C@H](C(=O)N[C@@H](CCC(=O)O)C(=O)N[C@@H](CS)C(=O)N[C@@H](CO)C(=O)N[C@@H](C)C(N)=O)[C@@H](C)O [Compound R2104, MCNYWSPWTECSA-NH2] (H-MCNYWSPWTECSA-NH2) ; wanted: its IC50
Reply: > 100 µM

Task item: # input compound: CCCCCCC(=O)N[C@H]1CSCc2cccc(c2)CSC[C@@H](C(=O)N[C@@H](CCCNC(=N)N)C(=O)N[C@H](C(N)=O)C(C)C)NC(=O)[C@H]([C@@H](C)CC)NC(=O)[C@H](CO)NC(=O)[C@H](CCC(=O)O)NC1=O [Compound R2041, [mXylyl(1,5)]Heptanoyl-CESICRV-NH2] (Heptanoyl-CESICRV-NH2; linker 1-5 via mXylylene) ; wanted: its IC50
Reply: > 7 µM

Task item: # input compound: CC[C@H](C)[C@@H]1NC(=O)[C@H](CO)NC(=O)[C@H](CCC(=O)O)NC(=O)[C@@H](NC(=O)[C@@H](N)CCSC)CSCc2cccc(c2)CSC[C@@H](C(=O)N[C@@H](CCCNC(=N)N)C(=O)N[C@H](C(N)=O)C(C)(C)C)NC1=O [Compound R2010, [mXylyl(2,6)]MCESICR-Tbg-NH2] (H-MCESICR[Tle]-NH2; linker 2-6 via mXylylene; N-terminus assumed) ; wanted: its IC50
Reply: > 100 µM

* * *

Molecular target: human plasma kallikrein (Homo sapiens, UniProt P03952)
Construct: purchased Enzyme Research Laboratories HPKa 1303
Experiment: Enzyme inhibition assay (fluorogenic substrate H-Pro-Phe-Arg-AMC)
Format: biochemical
Conditions: Kallikrein inhibitory activity; 1 nM activated human kallikrein, 500 μM H-Pro-Phe-Arg-AMC, 1 hour room temperature; read-out: Avg. IC50
Numbered stars: 1 amine (or outer) side, 2 acyl side, 3 side chain; on linkers, the order of the positions; unused ones are H or OH. Bridge positions count the residues as written; N and C are the ends. Square brackets hold non-standard residues; d marks the D form. Peptide text beside a SMILES is read from it. mXylylene = c1cc(C[*:1])cc(C[*:2])c1; Phg = N[C@H](C(=O)O)c1ccccc1; Tle = CC(C)(C)[C@H](N)C(=O)O
assayReadout: pIC50
Note: pIC50 values are expressed as the negative base-10 logarithm of concentration in M.

Task item: # input compound: CC(=O)N[C@H]1CSCc2cccc(c2)CSC[C@@H](C(=O)N[C@@H](CCCNC(=N)N)C(=O)N[C@H](C(N)=O)C(C)(C)C)NC(=O)[C@H](c2ccccc2)NC(=O)[C@H](CO)NC(=O)[C@H](C)NC1=O [Compound R2036, [mXylyl(1,5)]Ac-CAS-Phg-CR-Tbg-NH2] (Ac-CAS[Phg]CR[Tle]-NH2; linker 1-5 via mXylylene) ; wanted: its pIC50
Reply: 8.19

Value source: patent US9999650B2
